Biological target: human NaV 1.1 (Homo sapiens)
Construct: expressed in transfected cells; host or cells: CHO
Assay: Electrophysiology, IonWorks Barracuda, NaV channel block in CHO cells
Format: cell-based
Conditions: Nav1.1, CHO cells, 5 min exposure, ambient temperature; read-out: IC50 TP2 (inactivated state)
property-name: IC50 (µM)
Value expressed in µM; do not type the unit.

// query So what's the measured IC50 for this one? CCN(CC)CC(=O)Nc1c(C)cccc1C [Lidocaine, reference compound]
// result 465

----------
Molecular target: human NaV 1.4 (Homo sapiens)
Construct: expressed in transfected cells; host or cells: CHO
Sequence (P35499 whole entry): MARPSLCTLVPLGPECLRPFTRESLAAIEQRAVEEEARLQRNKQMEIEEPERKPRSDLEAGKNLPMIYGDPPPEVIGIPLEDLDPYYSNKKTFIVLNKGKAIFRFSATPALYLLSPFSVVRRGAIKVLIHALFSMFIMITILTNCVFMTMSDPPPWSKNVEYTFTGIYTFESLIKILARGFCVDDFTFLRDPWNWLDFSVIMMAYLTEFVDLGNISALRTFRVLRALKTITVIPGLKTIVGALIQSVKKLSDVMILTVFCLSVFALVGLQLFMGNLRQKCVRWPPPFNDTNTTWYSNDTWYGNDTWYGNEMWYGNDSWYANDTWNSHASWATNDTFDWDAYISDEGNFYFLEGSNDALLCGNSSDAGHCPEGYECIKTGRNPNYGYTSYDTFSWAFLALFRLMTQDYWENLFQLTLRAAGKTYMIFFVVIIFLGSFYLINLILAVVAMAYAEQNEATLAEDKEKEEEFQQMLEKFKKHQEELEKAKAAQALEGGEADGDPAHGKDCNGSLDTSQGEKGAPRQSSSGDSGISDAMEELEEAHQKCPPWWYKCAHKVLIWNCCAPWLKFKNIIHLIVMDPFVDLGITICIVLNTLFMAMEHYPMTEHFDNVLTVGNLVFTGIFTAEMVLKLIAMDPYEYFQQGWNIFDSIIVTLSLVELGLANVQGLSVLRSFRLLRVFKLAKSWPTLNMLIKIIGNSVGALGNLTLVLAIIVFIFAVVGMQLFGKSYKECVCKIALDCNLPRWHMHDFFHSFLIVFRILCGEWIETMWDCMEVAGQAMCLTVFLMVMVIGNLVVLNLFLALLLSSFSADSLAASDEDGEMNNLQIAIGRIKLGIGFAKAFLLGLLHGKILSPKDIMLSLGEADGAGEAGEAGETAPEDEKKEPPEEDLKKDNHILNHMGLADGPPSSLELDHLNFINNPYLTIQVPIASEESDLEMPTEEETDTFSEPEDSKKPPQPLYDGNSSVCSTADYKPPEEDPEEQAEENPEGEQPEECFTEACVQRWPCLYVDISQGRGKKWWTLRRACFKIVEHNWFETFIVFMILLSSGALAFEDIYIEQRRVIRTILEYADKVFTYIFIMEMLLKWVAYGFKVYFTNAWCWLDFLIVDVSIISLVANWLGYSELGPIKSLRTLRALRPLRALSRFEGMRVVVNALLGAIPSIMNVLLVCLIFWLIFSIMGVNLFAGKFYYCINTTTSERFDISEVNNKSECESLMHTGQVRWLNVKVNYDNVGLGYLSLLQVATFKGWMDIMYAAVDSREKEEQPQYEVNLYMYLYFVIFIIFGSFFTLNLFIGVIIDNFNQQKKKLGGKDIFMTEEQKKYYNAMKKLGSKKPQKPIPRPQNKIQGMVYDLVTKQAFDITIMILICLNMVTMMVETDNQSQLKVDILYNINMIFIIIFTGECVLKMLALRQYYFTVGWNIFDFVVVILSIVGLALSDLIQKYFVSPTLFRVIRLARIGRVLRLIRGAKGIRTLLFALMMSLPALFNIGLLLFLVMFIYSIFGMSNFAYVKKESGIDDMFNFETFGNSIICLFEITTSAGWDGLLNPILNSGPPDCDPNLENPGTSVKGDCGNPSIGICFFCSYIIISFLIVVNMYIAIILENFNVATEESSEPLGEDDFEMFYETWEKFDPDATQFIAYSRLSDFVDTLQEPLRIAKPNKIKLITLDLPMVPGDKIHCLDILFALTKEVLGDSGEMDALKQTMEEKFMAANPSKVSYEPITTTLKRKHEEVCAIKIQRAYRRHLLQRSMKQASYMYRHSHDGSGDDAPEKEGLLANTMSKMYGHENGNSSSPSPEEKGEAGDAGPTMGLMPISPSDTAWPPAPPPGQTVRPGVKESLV
Experiment: Electrophysiology, IonWorks Barracuda, NaV channel block in CHO cells
Assay type: cell-based
Settings: Nav1.4, CHO cells, 5 min exposure, ambient temperature; read-out: IC50 TP2 (inactivated state)
Experimental: Effects on Human NaV 1.1, NaV 1.2, NaV1.3, NaV 1.4, NaV 1.5, NaV 1.6, NaV 1.7 and NaV 1.8/β3 Sodium Channels Expressed in Mammalian Cells CHO cells were stably transfected with human ion channel cDNAs. Stable transfectants were selected by expression with the antibiotic-resistance gene(s) incorporated into the expression plasmid(s). Selection pressure was maintained by including selection antibiotics in the culture medium. […] Inhibition of NaV channels was measured using a stimulus voltage pattern. […]
property-name: IC50 (µM)
Answer in µM, number only, no unit symbol.

// query Checklist item: IC50 tested on human NaV 1.4 (Homo sapiens), entry CCN(CC)CC(=O)Nc1c(C)cccc1C [Lidocaine, reference compound] , value?
// result 162
